Target: T1, human C5 (human, UniProt P01031 19-673; P01031 678-1676, limits assumed)
T1 construct: In the sheep RBC lysis assay, C5 is the C5 of normal human serum; also called huC5
Assay: ELISA, affinity for human C5 against affinity for human C5a
Fold affinity (C5/C5a) values, listed per item
In your response, the unit should come after the numeric value.

Please review the entries below; each comes with its answer.
N92H (humanized anti-C5a IgG4 antibody) (antibody, V domains shown, Carries F29H in VH and N92H and Y96H in VL (Kabat); also called N92H antibody) VH: QVQLVQSGAEVKKPGSSVKVSCKASGYTHTDHIIHWMRQAPGQGLEWMGYIYPREGWTNYNENFKGRVTITADKSTSTAYMELSSLRSEDTAVYYCARERNLEYFDYWGQGTTVTVSS VL: DIVLTQSPASLAVSPGQRATITCKASQSVDYEGFNYMNWYQQKPGQPPKLLIYAASNLDSGVPARFSGSGSGTDFTLTINPVEAEDTANYYCQQSHEDPHTFGGGTKVEIKR; 3.9 fold
N97H (humanized anti-C5a IgG4 antibody) (antibody, V domains shown, Carries F29H and N97H in VH and Y96H in VL (Kabat)) VH: QVQLVQSGAEVKKPGSSVKVSCKASGYTHTDHIIHWMRQAPGQGLEWMGYIYPREGWTNYNENFKGRVTITADKSTSTAYMELSSLRSEDTAVYYCARERHLEYFDYWGQGTTVTVSS VL: DIVLTQSPASLAVSPGQRATITCKASQSVDYEGFNYMNWYQQKPGQPPKLLIYAASNLDSGVPARFSGSGSGTDFTLTINPVEAEDTANYYCQQSNEDPHTFGGGTKVEIKR; 6 fold
16D10 (humanized anti-C5a IgG4 antibody) (antibody, V domains shown, also called WT (16D10); WT) VH: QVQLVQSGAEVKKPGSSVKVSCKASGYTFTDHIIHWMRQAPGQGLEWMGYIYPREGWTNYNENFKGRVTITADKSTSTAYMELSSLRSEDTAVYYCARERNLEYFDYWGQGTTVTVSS VL: DIVLTQSPASLAVSPGQRATITCKASQSVDYEGFNYMNWYQQKPGQPPKLLIYAASNLDSGVPARFSGSGSGTDFTLTINPVEAEDTANYYCQQSNEDPYTFGGGTKVEIKR; 9.3 fold

Consider the record given below.
Ask | // returns reported Fold affinity (C5/C5a) for input E54H (humanized anti-C5a IgG4 antibody) (antibody, V domains shown, Carries F29H and E54H in VH and Y96H in VL (Kabat) relative to 16D10) VH: QVQLVQSGAEVKKPGSSVKVSCKASGYTHTDHIIHWMRQAPGQGLEWMGYIYPRHGWTNYNENFKGRVTITADKSTSTAYMELSSLRSEDTAVYYCARERNLEYFDYWGQGTTVTVSS VL: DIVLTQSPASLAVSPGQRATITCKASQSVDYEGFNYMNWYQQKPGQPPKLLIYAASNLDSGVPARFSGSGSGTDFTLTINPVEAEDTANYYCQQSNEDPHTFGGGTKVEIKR
Reply | 5.6 fold
